Origin of values: patent US20200079855A1

Molecular target: human αvβ8 integrin on U251 cells (human, UniProt P06756 31-1048)
Experiment: flow cytometry, Fab binding to fixed U251 cells (ΔMFI, background subtracted); EC50 unit inferred, axis Log10 [FAB] nM
Measurement Kind: EC50 (nM)
Answers are plain numbers, in nM.

{"columns": ["Binder", "EC50 [nM]"],
 "data": [
  ["ADWA11 VH05-2/VK01 Fab (parental) (Fab, V domains shown) VH: EVQLVESGGGLVQPGGSLRLSCAASGFNIKDYYMNWVRQAPGKGLEWVGWIDPDQGNTIYEPKFQGRFTISADTSKNSAYLQMNSLRAEDTAVYYCARRLLMDYWGQGTLVTVSS VL: DIQMTQSPSSLSASVGDRVTITCRSTKSLLHFNGNTYLFWYQQKPGKAPKRLIYYMSNLASGVPSRFSGSGSGTDFTLTISSLQPEDFATYYCMQSLEYPFTFGQGTKVEIK", 0.613],
  ["ADWA11 VH05-2/VK01 Fab with F64V in VH (Fab, V domains shown) VH: EVQLVESGGGLVQPGGSLRLSCAASGFNIKDYYMNWVRQAPGKGLEWVGWIDPDQGNTIYEPKVQGRFTISADTSKNSAYLQMNSLRAEDTAVYYCARRLLMDYWGQGTLVTVSS VL: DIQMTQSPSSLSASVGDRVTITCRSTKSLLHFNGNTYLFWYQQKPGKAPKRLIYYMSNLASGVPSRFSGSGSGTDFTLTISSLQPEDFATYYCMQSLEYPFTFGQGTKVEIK", 0.588],
  ["ADWA11 VH05-2/VK01 Fab with M94Q in VL (Fab, V domains shown) VH: EVQLVESGGGLVQPGGSLRLSCAASGFNIKDYYMNWVRQAPGKGLEWVGWIDPDQGNTIYEPKFQGRFTISADTSKNSAYLQMNSLRAEDTAVYYCARRLLMDYWGQGTLVTVSS VL: DIQMTQSPSSLSASVGDRVTITCRSTKSLLHFNGNTYLFWYQQKPGKAPKRLIYYMSNLASGVPSRFSGSGSGTDFTLTISSLQPEDFATYYCQQSLEYPFTFGQGTKVEIK", 0.641],
  ["ADWA11 VH05-2/VK01 Fab with Q105G in VL (Fab, V domains shown) VH: EVQLVESGGGLVQPGGSLRLSCAASGFNIKDYYMNWVRQAPGKGLEWVGWIDPDQGNTIYEPKFQGRFTISADTSKNSAYLQMNSLRAEDTAVYYCARRLLMDYWGQGTLVTVSS VL: DIQMTQSPSSLSASVGDRVTITCRSTKSLLHFNGNTYLFWYQQKPGKAPKRLIYYMSNLASGVPSRFSGSGSGTDFTLTISSLQPEDFATYYCMQSLEYPFTFGGGTKVEIK", 0.486],
  ["ADWA11 VH05-2/VK01 Fab with L30S in VL (Fab, V domains shown) VH: EVQLVESGGGLVQPGGSLRLSCAASGFNIKDYYMNWVRQAPGKGLEWVGWIDPDQGNTIYEPKFQGRFTISADTSKNSAYLQMNSLRAEDTAVYYCARRLLMDYWGQGTLVTVSS VL: DIQMTQSPSSLSASVGDRVTITCRSTKSLSHFNGNTYLFWYQQKPGKAPKRLIYYMSNLASGVPSRFSGSGSGTDFTLTISSLQPEDFATYYCMQSLEYPFTFGQGTKVEIK", 0.544]
]}

// each binder listed below needs its EC50
1. ADWA11 VH05-2/VK01 Fab with F101L in VL (Fab, V domains shown) VH: EVQLVESGGGLVQPGGSLRLSCAASGFNIKDYYMNWVRQAPGKGLEWVGWIDPDQGNTIYEPKFQGRFTISADTSKNSAYLQMNSLRAEDTAVYYCARRLLMDYWGQGTLVTVSS VL: DIQMTQSPSSLSASVGDRVTITCRSTKSLLHFNGNTYLFWYQQKPGKAPKRLIYYMSNLASGVPSRFSGSGSGTDFTLTISSLQPEDFATYYCMQSLEYPLTFGQGTKVEIK
2. ADWA11 VH05-2/VK01 Fab with L97Y in VL (Fab, V domains shown) VH: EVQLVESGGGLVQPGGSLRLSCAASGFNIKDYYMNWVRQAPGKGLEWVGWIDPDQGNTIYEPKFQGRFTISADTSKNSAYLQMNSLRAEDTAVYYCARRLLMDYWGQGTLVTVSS VL: DIQMTQSPSSLSASVGDRVTITCRSTKSLLHFNGNTYLFWYQQKPGKAPKRLIYYMSNLASGVPSRFSGSGSGTDFTLTISSLQPEDFATYYCMQSYEYPFTFGQGTKVEIK

1.56
0.544
